Measured IC50 of individual entries
target: recombinant human AMCase (Homo sapiens, UniProt Q9BZP6); assay: Human AMCase Activity Assay; conditions: recombinant hAMCase, 4-methylumbelliferyl chitobioside substrate, citrate buffer pH 5.2, 37° C., 60 minutes; read-out: Activity (IC50 value key)
Sequence (Q9BZP6 22-476): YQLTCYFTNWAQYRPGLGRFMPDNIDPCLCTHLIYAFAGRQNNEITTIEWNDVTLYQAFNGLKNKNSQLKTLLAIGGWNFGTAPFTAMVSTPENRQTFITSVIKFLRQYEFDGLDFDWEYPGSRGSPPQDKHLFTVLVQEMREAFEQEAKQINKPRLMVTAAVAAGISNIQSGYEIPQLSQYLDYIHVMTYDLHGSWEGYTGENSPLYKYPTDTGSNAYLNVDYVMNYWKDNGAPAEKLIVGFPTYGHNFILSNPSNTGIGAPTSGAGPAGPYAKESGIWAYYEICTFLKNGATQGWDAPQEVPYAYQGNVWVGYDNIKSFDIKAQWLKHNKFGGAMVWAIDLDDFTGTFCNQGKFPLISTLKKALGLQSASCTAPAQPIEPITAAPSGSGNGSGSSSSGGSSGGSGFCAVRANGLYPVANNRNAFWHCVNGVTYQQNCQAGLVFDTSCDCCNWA

compound | IC50
Cc1cccc(Cl)c1CN(CCc1ccc(Cl)cc1)C1CCN(c2nc(N)n[nH]2)CC1 | < 0.1 µM
Nc1n[nH]c(N2CCC(N(CCc3ccc(Br)cc3)Cc3ccccc3Cl)CC2)n1 | < 0.1 µM
Nc1n[nH]c(N2CCC(C(=O)NCc3ccc(Cl)cc3)CC2)n1 | > 100 µM
Nc1nc(N2CCC(N(CCc3ccc(Cl)cc3)Cc3ccc(F)cc3Cl)CC2)n[nH]1 | < 0.1 µM
Nc1n[nH]c(N2CCC(CCCCO)(NS(=O)(=O)Cc3ccc(Br)cc3)CC2)n1 | 1 to 10 µM
Nc1nc(N2CCC(N(CCc3ccc(Cl)cc3)Cc3cccc(C(F)(F)F)c3)CC2)n[nH]1 | < 0.1 µM
Nc1n[nH]c(N2CCN(CCOc3ccccc3Cl)CC2)n1 | 10 to 100 µM
Nc1n[nH]c(N2CCC(c3nnc(-c4ccc(F)cc4)o3)CC2)n1 | > 100 µM
Cc1ccc(OC(C)C(=O)N2CCN(c3nc(N)n[nH]3)CC2)c(Cl)c1 (stereo not drawn) | > 100 µM
